- Target Or System: Glutamate receptor 2 (Homo sapiens, UniProt P42262)
- Sequence (P42262 whole entry): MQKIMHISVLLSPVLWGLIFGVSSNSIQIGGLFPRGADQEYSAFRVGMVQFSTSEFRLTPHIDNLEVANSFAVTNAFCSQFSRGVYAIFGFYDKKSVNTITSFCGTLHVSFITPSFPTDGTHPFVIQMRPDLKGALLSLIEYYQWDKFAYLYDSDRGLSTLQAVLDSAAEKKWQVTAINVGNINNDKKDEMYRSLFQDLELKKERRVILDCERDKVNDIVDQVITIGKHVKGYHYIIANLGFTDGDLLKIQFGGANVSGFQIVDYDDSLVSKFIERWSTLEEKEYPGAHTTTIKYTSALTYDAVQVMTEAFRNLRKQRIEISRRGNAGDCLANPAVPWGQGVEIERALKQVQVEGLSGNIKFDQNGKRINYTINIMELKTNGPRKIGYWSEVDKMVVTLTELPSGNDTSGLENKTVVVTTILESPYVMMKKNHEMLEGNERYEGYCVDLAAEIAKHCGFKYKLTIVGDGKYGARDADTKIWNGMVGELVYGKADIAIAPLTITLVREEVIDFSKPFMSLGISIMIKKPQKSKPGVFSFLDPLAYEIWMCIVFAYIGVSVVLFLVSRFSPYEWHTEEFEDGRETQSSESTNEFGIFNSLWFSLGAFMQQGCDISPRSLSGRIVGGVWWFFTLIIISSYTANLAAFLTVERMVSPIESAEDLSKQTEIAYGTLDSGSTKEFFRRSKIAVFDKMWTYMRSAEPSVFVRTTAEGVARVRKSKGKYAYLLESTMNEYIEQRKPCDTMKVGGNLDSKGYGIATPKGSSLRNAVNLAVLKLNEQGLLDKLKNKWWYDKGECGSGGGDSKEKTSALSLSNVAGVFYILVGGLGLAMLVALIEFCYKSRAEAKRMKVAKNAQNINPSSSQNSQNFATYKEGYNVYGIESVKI
- Method Summary: Positive allosteric modulation of human GluA2 AMPAR flop isomer expressed in Dox-inducible cells measured every 5 mins by BD calcium indicator dye based-fluorescence analysis in presence of glutamate
- Assay type: cell-based
Property Name: pEC50
The read-out pEC50 is expressed as -log10 of concentration in moles per litre.

Known pEC50 results, listed for orientation:
Query: Param readout= pEC50; system= Glutamate receptor 2 (Homo sapiens, UniProt P42262); entry= "CCNC(=O)c1c(C)sc2nc(Cc3cccc(C#N)c3)cc(=O)n12" ; returns value.
Result: 4.27

Query: What do we get for "CCN(Cc1cc(=O)n2c(CO)c(C)sc2n1)c1ccc(F)cc1" ?
Result: 5.72

Query: What do we get for "CCN(Cc1cc(=O)n2c(C(C)(C)O)c(C)sc2n1)c1ccc(F)cc1" ?
Result: 5.62

Query: What do we get for Cc1sc2nc(Cc3cccc(C(F)(F)F)c3F)cc(=O)n2c1C1CC1CO (racemic) ?
Result: 6.44

Query: What do we get for "O=c1cc(Cn2nc(C(F)(F)F)cc2Cl)nc2sc(C(F)(F)F)c([C@@H]3C[C@H]3CO)n12" ?
Result: 5.60

Query: What do we get for "CCCCc1nn2c(=O)cc(CN(CC)c3ccccc3)nc2s1" ?
Result: 4.63

Query: What do we get for "CCN(Cc1cc(=O)n2c(CCCO)c(C)sc2n1)c1ccc(F)cc1" ?
Result: 5.82

Query: What do we get for "CCN(Cc1cc(=O)n2c(-c3cccnc3)c(C)sc2n1)c1ccc(F)cc1" ?
Result: 5.35

Others:
Query: Param readout= pEC50; system= Glutamate receptor 2 (Homo sapiens, UniProt P42262); entry= "CCN(Cc1cc(=O)n2c(C3CCC3)c(C)sc2n1)c1ccc(F)cc1" ; returns value.
Result: 5.07

Query: What do we get for "C=C(C)c1c(C)sc2nc(CN(CC)c3ccc(F)cc3)cc(=O)n12" ?
Result: 4.89

Query: What do we get for "CCN(Cc1cc(=O)n2cc(C)sc2n1)c1ccc(F)cc1" ?
Result: 6.61

Query: What do we get for "CCNC(=O)c1c(C)sc2nc(Cn3nc(C(F)(F)F)cc3OCC)cc(=O)n12" ?
Result: 5.04

Query: What do we get for "Cc1sc2nc(Cn3nc(C(F)(F)F)cc3Cl)cc(=O)n2c1[C@@H]1C[C@H]1C#N" ?
Result: 7.14

Query: What do we get for "Cc1sc2nc(COc3ccc(F)cc3)cc(=O)n2c1[C@@H]1C[C@H]1CO" ?
Result: 5.64

* * *

- Tested on: human MDR1 (P-gp)
- Method Summary: Efflux ratio of permeability from basolateral to apical over apical to basolateral side in MDCK cells expressing human MDR1
- Format: ADME, cell-based, Canis lupus familiaris
- Test Parameters: dog
Property Name: efflux ratio
No unit in the answer, only the number.

Known efflux ratio results, listed for orientation:
Query: // returns reported efflux ratio for input "CCNC(=O)c1c(C)sc2nc(COc3ccc(F)cc3)cc(=O)n12"
Result: 2

Query: What do we get for Cc1sc2nc(Cc3cccc(C#N)c3F)cc(=O)n2c1C1CC1CO (racemic) ?
Result: 3.6

Query: What do we get for "CCN(Cc1cc(=O)n2c(CCCO)c(C)sc2n1)c1ccc(F)cc1" ?
Result: 1

Query: What do we get for "CCN(Cc1cc(=O)n2c(C(C)=O)c(C)sc2n1)c1ccc(F)cc1" ?
Result: 1.1

Query: What do we get for "CCNC(=O)c1c(C)sc2nc(Cc3cc(C#N)ccc3Cl)cc(=O)n12" ?
Result: 22

Query: What do we get for "CCNC(=O)c1c(C)sc2nc(Cn3nc(C(F)(F)F)cc3OCC)cc(=O)n12" ?
Result: 57

Others:
Query: // returns reported efflux ratio for input CCN(Cc1cc(=O)n2c(C(C)O)c(C)sc2n1)c1ccc(F)cc1 (racemic)
Result: 0.6

Query: What do we get for "CCNC(=O)c1c(C)sc2nc(Cc3cccc(C#N)c3)cc(=O)n12" ?
Result: 25

Query: What do we get for "Cc1sc2nc(Cn3nc(C(F)(F)F)cc3Cl)cc(=O)n2c1[C@@H]1C[C@H]1CO" ?
Result: 1.3

* * *

- Tested on: human MDR1 (P-gp)
- Method Summary: Efflux ratio of permeability from basolateral to apical over apical to basolateral side in MDCK cells expressing human MDR1
- Type: ADME, cell-based, Canis lupus familiaris
- Test Parameters: dog
Hi! Could you tag entries with efflux ratio below 1 as fulfilled, and those at or above as not fulfilled? Much appreciated.

Study these solved cases before continuing.
Query: Hello, is efflux ratio of the following molecule strictly smaller than 1? "CCNC(=O)c1c(C)sc2nc(Cn3nc(C(F)(F)F)cc3OCC(C)C)cc(=O)n12"
Result: not fulfilled

Query: What do we get for "CCN(Cc1cc(=O)n2c(C#N)c(C)sc2n1)c1ccc(F)cc1" ?
Result: fulfilled

Query: What do we get for "CCNC(=O)c1c(C)sc2nc(CNc3ccc(F)cc3)cc(=O)n12" ?
Result: not fulfilled

Query: What do we get for "N#C[C@@H]1C[C@H]1c1c(C(F)(F)F)sc2nc(Cn3nc(C(F)(F)F)cc3Cl)cc(=O)n12" ?
Result: not fulfilled

Next molecule, please.
Query: Hello, is efflux ratio of the following molecule strictly smaller than 1? "CCNC(=O)c1c(C)sc2nc(Cc3cccc(C#N)c3F)cc(=O)n12"
Result: not fulfilled

* * *

- Target Or System: Glutamate NMDA receptor; GRIN1/GRIN2A (Homo sapiens, UniProt Q05586+Q12879)
- Method Summary: Positive allosteric modulation of GluN1/GluN2A NMDAR (unknown origin) expressed in Dox-inducible cells at 125 uM measured every 5 mins by BD calcium indicator dye based-fluorescence analysis in presence of glutamate/glycine
- Format: cell-based
Reported %max values are given for each entry in this list.
Numbers only; they are read as %.

Known %max results, listed for orientation:
Query: // returns reported %max for input "CCNC(=O)c1c(C)sc2nc(Cn3ccc(C(F)(F)F)n3)cc(=O)n12"
Result: 99

Query: What do we get for "CCNC(=O)c1c(C)sc2nc(Cc3cccc(C#N)c3)cc(=O)n12" ?
Result: 71

Others:
Query: // returns reported %max for input CCN(Cc1cc(=O)n2c(C(C)O)c(C)sc2n1)c1ccc(F)cc1 (racemic)
Result: 154

Query: What do we get for "CCNC(=O)c1c(C)sc2nc(Cn3nc(C(F)(F)F)cc3Cl)cc(=O)n12" ?
Result: 120

Query: What do we get for "CCN(Cc1cc(=O)n2c(C#N)c(C)sc2n1)c1ccc(F)cc1" ?
Result: 181

Query: What do we get for CCNC(=O)c1c(C)sc2nc(C(C)c3cccc(C(F)(F)F)c3F)cc(=O)n12 (racemic) ?
Result: 75

Query: What do we get for "CCCN(Cc1cc(=O)n2c(C(=O)NCC)c(C)sc2n1)c1ccc(F)cc1" ?
Result: 171

Query: What do we get for "CCNC(=O)c1c(C)sc2nc(Cn3nc(C(F)(F)F)cc3C3CC3)cc(=O)n12" ?
Result: 147

Query: What do we get for Cc1sc2nc(Cc3cccc(C(F)(F)F)c3F)cc(=O)n2c1C1CC1CO (racemic) ?
Result: 117

Query: What do we get for "CCNC(=O)c1c(C)sc2nc(Cc3cccc(C(F)(F)F)c3)cc(=O)n12" ?
Result: 113

* * *

Reported pEC50 values are given for each entry in this list.
- Target Or System: Glutamate NMDA receptor; GRIN1/GRIN2A (Homo sapiens, UniProt Q05586+Q12879)
- Method Summary: Positive allosteric modulation of GluN1/GluN2A NMDAR (unknown origin) expressed in Dox-inducible cells measured every 5 mins by BD calcium indicator dye based-fluorescence analysis in presence of glutamate/glycine
The read-out pEC50 is expressed as -log10 of concentration in moles per litre.

Query: // returns reported pEC50 for input "O=c1cc(Cn2nc(C(F)(F)F)cc2Cl)nc2sc(C(F)(F)F)c([C@@H]3C[C@H]3CO)n12"
Result: 7.14

* * *

- Target Or System: Glutamate NMDA receptor; GRIN1/GRIN2A (Homo sapiens, UniProt Q05586+Q12879)
- Method Summary: Positive allosteric modulation of GluN1/GluN2A NMDAR (unknown origin) expressed in Dox-inducible cells at 125 uM measured every 5 mins by BD calcium indicator dye based-fluorescence analysis in presence of glutamate/glycine
- Assay type: cell-based
Property Name: %max
// return the numeric value with its unit appended

Known %max results, listed for orientation:
Query: // returns reported %max for input "CCN(Cc1cc(=O)n2c(C3CC3)c(C)sc2n1)c1ccc(F)cc1"
Result: 168%

Query: What do we get for "CCN(Cc1cc(=O)n2c(C(C)C)c(C)sc2n1)c1ccc(F)cc1" ?
Result: 129%

Query: What do we get for "CCN(Cc1cc(=O)n2c(CCO)c(C)sc2n1)c1ccc(F)cc1" ?
Result: 168%

Others:
Query: // returns reported %max for input "CCN(Cc1cc(=O)n2nc(C)sc2n1)c1ccccc1"
Result: 150%

Query: What do we get for "CCNC(=O)c1c(C)sc2nc(Cn3nc(C(F)(F)F)cc3OCC(C)C)cc(=O)n12" ?
Result: 60%
